target: Vascular endothelial growth factor receptor 2 (Homo sapiens, UniProt P35968); type: functional; note: assay procedure not described here
Sequence (P35968 whole entry): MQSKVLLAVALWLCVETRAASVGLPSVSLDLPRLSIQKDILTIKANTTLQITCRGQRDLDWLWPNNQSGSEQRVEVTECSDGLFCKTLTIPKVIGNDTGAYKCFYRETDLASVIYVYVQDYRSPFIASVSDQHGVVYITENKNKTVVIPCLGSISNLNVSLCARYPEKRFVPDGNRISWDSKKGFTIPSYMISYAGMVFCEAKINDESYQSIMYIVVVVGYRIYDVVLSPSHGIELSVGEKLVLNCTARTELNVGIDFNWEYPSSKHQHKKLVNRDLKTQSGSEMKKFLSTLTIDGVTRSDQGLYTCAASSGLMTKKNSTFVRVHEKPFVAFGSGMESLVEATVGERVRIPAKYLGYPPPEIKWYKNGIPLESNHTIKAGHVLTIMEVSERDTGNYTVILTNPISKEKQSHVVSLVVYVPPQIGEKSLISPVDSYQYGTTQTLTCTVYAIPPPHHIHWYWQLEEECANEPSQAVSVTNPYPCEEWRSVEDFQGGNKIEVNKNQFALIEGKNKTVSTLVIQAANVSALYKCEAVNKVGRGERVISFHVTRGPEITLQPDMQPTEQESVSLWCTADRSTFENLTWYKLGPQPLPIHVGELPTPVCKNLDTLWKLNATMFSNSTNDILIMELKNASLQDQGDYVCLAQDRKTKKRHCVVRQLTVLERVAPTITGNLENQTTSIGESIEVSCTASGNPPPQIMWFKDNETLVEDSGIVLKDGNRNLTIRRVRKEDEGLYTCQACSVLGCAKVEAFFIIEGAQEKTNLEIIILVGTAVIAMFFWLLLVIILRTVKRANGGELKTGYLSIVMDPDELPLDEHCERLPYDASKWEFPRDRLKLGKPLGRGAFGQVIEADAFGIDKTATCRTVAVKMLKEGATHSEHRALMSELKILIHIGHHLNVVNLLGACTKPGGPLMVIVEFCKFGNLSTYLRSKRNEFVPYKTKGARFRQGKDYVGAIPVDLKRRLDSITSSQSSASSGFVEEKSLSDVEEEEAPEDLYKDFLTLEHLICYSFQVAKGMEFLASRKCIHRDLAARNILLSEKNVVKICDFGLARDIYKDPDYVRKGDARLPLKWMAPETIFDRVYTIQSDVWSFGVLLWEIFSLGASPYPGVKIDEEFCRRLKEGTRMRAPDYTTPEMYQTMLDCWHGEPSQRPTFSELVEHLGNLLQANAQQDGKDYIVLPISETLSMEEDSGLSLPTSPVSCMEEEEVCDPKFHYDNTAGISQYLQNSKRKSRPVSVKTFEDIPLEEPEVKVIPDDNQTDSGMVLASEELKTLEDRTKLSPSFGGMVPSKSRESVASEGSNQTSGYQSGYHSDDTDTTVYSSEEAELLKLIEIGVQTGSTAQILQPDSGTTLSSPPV
observation_type: AC50

INSERT INTO assay_data (molecule, observation_type, reading) VALUES
  ('CC(=O)O[C@]1(C(C)=O)CC[C@H]2[C@@H]3C=C(Cl)C4=CC(=O)CC[C@]4(C)[C@H]3CC[C@@]21C [CHLORMADINONE ACETATE]', 'AC50', '> 30 µM'),
  ('CCOC(=O)[C@H](CCc1ccccc1)N[C@@H](C)C(=O)N(CC(=O)O)C1Cc2ccccc2C1', 'AC50', '> 30 µM');

Now take the following molecule into account.
# input Return the recorded AC50 value; entry: CC[C@H]1OC(=O)[C@H](C)C(=O)[C@H](C)[C@@H](O[C@@H]2O[C@H](C)C[C@H](N(C)C)[C@H]2O)[C@](C)(OC)C[C@@H](C)C(=O)[C@H](C)[C@H]2N(CCCCn3cnc(-c4cccnc4)c3)C(=O)O[C@]12C
# output > 30 µM

====

Each entry below carries its recorded AC50.
Biological target: 5-hydroxytryptamine receptor 1A (Homo sapiens); note: assay procedure not described here
Sequence (P08908 whole entry): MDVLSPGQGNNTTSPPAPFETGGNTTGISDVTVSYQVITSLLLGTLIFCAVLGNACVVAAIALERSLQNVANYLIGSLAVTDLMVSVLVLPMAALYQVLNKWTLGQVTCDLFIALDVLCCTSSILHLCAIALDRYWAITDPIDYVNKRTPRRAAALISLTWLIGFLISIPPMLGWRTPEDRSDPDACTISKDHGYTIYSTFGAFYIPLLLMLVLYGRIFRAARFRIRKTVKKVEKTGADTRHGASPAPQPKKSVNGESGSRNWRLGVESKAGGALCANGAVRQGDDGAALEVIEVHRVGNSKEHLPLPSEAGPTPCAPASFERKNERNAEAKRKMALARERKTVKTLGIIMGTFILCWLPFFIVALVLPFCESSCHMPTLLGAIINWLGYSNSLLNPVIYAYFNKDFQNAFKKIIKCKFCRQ
Assay type: functional, cell-based

# input Return the recorded AC50 value; entry: CC(N)C12CC3CC(CC(C3)C1)C2 (stereo not drawn)
# output > 10 µM

# input Answer with the recorded AC50 for the compound listed here: CC(=O)O[C@H](CC(=O)[O-])C[N+](C)(C)C
# output > 30 µM

# input Provide AC50 value for the following compound: CC(S)C(=O)NCC(=O)O (stereo not drawn)
# output > 30 µM

# input Kindly indicate its recorded AC50. Item: CCCC(CCC)C(N)=O [VALPROMIDE]
# output > 30 µM

# input Respond only with AC50 recorded for C[C@]12CCC(=O)C(O)=C1CC[C@@H]1[C@@H]2CC[C@]2(C)C(=O)CC[C@@H]12
# output > 30 µM

# input Tell me AC50 reported for CN(C)CCCNc1c2ccccc2nc2cccc([N+](=O)[O-])c12
# output > 30 µM

# input Please report AC50 for the following compound: NC(=O)CN1CCCC1=O
# output > 30 µM

# input Report AC50, nothing else, for this compound: CN(C)CC[C@@H](c1ccc(Cl)cc1)c1ccccn1
# output > 30 µM

# input Let me know recorded AC50 for CO[C@H]1/C=C/O[C@@]2(C)Oc3c(C)c(O)c4c(O)c(c(/C=N/N5CCN(C)CC5)c(O)c4c3C2=O)NC(=O)/C(C)=C\C=C\[C@H](C)[C@H](O)[C@@H](C)[C@@H](O)[C@@H](C)[C@H](OC(C)=O)[C@@H]1C , thanks.
# output > 30 µM

# input Specify AC50 for Nc1cc(-c2ccncc2)c[nH]c1=O and stop.
# output > 10 µM

# input Tell me its AC50 given COc1ccc2nc3cc(Cl)ccc3c(Nc3cc(CN4CCCC4)c(O)c(CN4CCCC4)c3)c2n1 as the entry.
# output > 30 µM

# input Tell me its AC50 given COc1cc(N)c(Cl)cc1C(=O)NC1CCN(Cc2ccccc2)CC1 [CLEBOPRIDE] as the entry.
# output > 30 µM

# input Output measured AC50 for this item: CC(=O)OCC(=O)[C@@]1(O)[C@H](C)C[C@H]2[C@@H]3CCC4=CC(=O)C=C[C@]4(C)[C@@]3(F)[C@@H](O)C[C@@]21C [DEXAMETHASONE ACETATE]
# output > 10 µM

# input Identify AC50 associated with the compound CN1CCN(C2=Nc3ccccc3Oc3ccc(Cl)cc32)CC1
# output > 10 µM

# input For the compound Cc1cc(C(C)(C)C)cc(C)c1CC1=NCCN1 , report AC50.
# output 0.0178 µM

# input State its AC50 for this compound: C[C@H](Cc1ccc(O)c(O)c1)[C@@H](C)Cc1ccc(O)c(O)c1
# output > 10 µM

# input Return the recorded AC50 value; entry: O=C1CN=C(c2ccccc2)c2cc([N+](=O)[O-])ccc2N1
# output > 10 µM

# input Please give the documented AC50 of Oc1ccc2c(c1)CC[C@H](c1ccccc1)[C@@H]2c1ccc(OCCN2CCCC2)cc1
# output > 30 µM

====

For UniProtKB P20309, measured AC50 is reported for the entries below.
Sequence (P20309 whole entry): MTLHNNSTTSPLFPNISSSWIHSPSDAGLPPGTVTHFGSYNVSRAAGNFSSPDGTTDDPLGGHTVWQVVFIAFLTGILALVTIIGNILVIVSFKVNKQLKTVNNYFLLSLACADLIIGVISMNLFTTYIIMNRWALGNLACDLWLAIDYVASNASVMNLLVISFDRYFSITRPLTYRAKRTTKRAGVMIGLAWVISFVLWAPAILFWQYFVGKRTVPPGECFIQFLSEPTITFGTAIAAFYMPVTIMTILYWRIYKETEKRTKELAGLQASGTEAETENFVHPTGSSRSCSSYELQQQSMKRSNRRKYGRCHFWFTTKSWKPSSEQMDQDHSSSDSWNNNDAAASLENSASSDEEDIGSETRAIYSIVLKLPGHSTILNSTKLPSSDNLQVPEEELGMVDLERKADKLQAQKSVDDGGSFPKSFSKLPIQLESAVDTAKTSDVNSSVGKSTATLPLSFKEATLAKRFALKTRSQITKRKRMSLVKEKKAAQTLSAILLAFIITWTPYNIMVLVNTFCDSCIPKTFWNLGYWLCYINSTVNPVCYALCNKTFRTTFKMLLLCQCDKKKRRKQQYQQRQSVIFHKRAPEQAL

INSERT INTO assay_data (molecule, reading) VALUES
  ('CCC(=O)O[C@H]1CC[C@H]2[C@@H]3CCC4=CC(=O)CC[C@]4(C)[C@H]3CC[C@]12C [TESTOSTERONE PROPIONATE]', '> 10 µM'),
  ('[H]/N=C(/N)N/C(=N/[H])NCCc1ccccc1', '> 30 µM'),
  ('C=C1/C(=C\C=C2/CCC[C@]3(C)[C@@H]([C@H](C)/C=C/[C@@H](O)C4CC4)CC[C@@H]23)C[C@@H](O)C[C@@H]1O', '> 30 µM');

# input Given O=C1CN=C(c2ccccn2)c2cc(Br)ccc2N1 , report its AC50 on UniProtKB P20309.
# output > 30 µM

====

The entries below are paired with their reported AC50.
target: 5-hydroxytryptamine receptor 1A (Homo sapiens, UniProt P08908); format: functional, cell-based; note: assay procedure not described here

Solved entries:
INSERT INTO results (molecule, reading) VALUES
  ('Oc1ccc2c(c1)[C@@]13CCCC[C@@]1(O)[C@@H](C2)N(CC1CCC1)CC3', '> 30 µM'),
  ('Clc1ccc(C(Cn2ccnc2)OCc2ccsc2Cl)c(Cl)c1 (stereo not given)', '> 30 µM'),
  ('CC(C)NCC(O)c1ccc(O)c(O)c1 (stereo not given)', '> 10 µM'),
  ('COc1cc2nc(N3CCN(C(=O)C4CCCO4)CC3)nc(N)c2cc1OC (stereo not given)', '> 10 µM');

Kindly review the next molecule as well.
# input Please indicate AC50 recorded for CC(C)c1nc(N(C)S(C)(=O)=O)nc(-c2ccc(F)cc2)c1/C=C/[C@@H](O)C[C@@H](O)CC(=O)O
# output > 30 µM

====

target: 5-hydroxytryptamine receptor 2B (Homo sapiens, UniProt P41595); type: functional, cell-based; note: assay procedure not described here
Sequence (P41595 whole entry): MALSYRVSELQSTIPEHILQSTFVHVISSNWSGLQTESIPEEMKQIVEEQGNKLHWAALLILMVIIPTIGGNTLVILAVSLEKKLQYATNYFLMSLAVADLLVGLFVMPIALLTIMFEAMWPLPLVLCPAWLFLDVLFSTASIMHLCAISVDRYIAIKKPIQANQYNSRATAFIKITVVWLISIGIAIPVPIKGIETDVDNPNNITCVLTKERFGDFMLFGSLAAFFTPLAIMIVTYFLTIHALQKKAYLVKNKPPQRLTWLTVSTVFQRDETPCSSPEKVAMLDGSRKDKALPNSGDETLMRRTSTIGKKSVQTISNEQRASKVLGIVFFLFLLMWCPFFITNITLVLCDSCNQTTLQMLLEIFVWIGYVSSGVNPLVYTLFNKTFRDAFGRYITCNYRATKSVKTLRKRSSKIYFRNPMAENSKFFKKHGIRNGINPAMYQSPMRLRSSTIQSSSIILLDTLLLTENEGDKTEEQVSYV
observation_type: AC50

Before answering, review these 3 worked examples.
INSERT INTO measurements (compound, reading) VALUES
  ('C[C@]12C=CC(=O)N[C@@H]1CC[C@@H]1[C@@H]2CC[C@]2(C)[C@@H](C(=O)Nc3cc(C(F)(F)F)ccc3C(F)(F)F)CC[C@@H]12 [DUTASTERIDE]', '> 10 µM'),
  ('C[C@@H](NCCCc1cccc(C(F)(F)F)c1)c1cccc2ccccc12', '> 30 µM'),
  ('CCN(CC)CCNC(=O)c1c(C)[nH]c(/C=C2\C(=O)Nc3ccc(F)cc32)c1C', '> 30 µM');

# input // fetch AC50 for CN1C[C@H](C(=O)N[C@]2(C)O[C@@]3(O)[C@@H]4CCCN4C(=O)[C@H](Cc4ccccc4)N3C2=O)C=C2c3cccc4[nH]cc(c34)C[C@H]21 ; system: 5-hydroxytryptamine receptor 2B (Homo sapiens, UniProt P41595); note: assay procedure not described here
# output > 10 µM

# input // output AC50; input CC(=O)OCC(=O)[C@@]1(O)[C@H](C)C[C@H]2[C@@H]3CCC4=CC(=O)C=C[C@]4(C)[C@@]3(F)[C@@H](O)C[C@@]21C [DEXAMETHASONE ACETATE] ; system 5-hydroxytryptamine receptor 2B (Homo sapiens, UniProt P41595); note: assay procedure not described here
# output > 10 µM

# input Under 5-hydroxytryptamine receptor 2B (Homo sapiens, UniProt P41595): report AC50 of C=C[C@H]1C[N@@]2CC[C@H]1C[C@@H]2[C@@H](O)c1ccnc2ccc(OC)cc12 .
# output 1.16 µM

# input // output AC50; input C=C1/C(=C\C=C2/CCC[C@]3(C)[C@@H]([C@H](C)/C=C/[C@@H](O)C4CC4)CC[C@@H]23)C[C@@H](O)C[C@@H]1O ; system 5-hydroxytryptamine receptor 2B (Homo sapiens, UniProt P41595); note: assay procedure not described here
# output > 30 µM

# input Write down measured AC50 (5-hydroxytryptamine receptor 2B (Homo sapiens, UniProt P41595)) for this compound. CC(=O)SC[C@@H](C)C(=O)N1CCC[C@H]1C(=O)N[C@@H](Cc1ccccc1)C(=O)O
# output > 30 µM
